# System: MIA PaCa-2 cells
# procedureDetails: In-vitro anti-proliferative activity in combination with gemcitabine on MIA PaCa-2 cells
# Format: cell-based
# experimentalConditions: 72 h, with 20 nM gemcitabine, read-out: in combination with 20 nM GMC IC50
IC50 overview
Express your answer in nM, writing the number without its unit.

Below, each entry is followed by its recorded IC50 result.
# compound, readout, reported
data = [
    ("CN1CCc2c(cc(Nc3ncc(C#N)c(Nc4cccc(N=S(C)(C)=O)n4)n3)cc2C2CCC2)C1 [Compound 97]", "IC50", 1.6),
    ("C#Cc1cc(Nc2ncc(C#N)c(Nc3cccc(N=S(C)(C)=O)n3)n2)cc2c1CCN(C)C2 [Compound 43]", "IC50", 21.2),
    ("CN(C)Cc1cc(Nc2ncc(C#N)c(Nc3cccc(N=S(C)(C)=O)n3)n2)cc2c1CCN(C)C2 [Compound 130]", "IC50", 10),
]

Incoming: Fill in the blank: the reported IC50 of CN(C)C1CCc2ccc(Nc3ncc(C#N)c(Nc4cccc(N=S(C)(C)=O)n4)n3)cc2CC1 (stereo not drawn) [Compound 52] is ____.
Outgoing: 4.5

Incoming: // repeat for CN1CCc2ccc(Nc3ncc(C(F)(F)F)c(Nc4cccc(N=S(C)(C)=O)n4)n3)cc2C1 [Compound 2] and report
Outgoing: 30

Incoming: CC(C)Cc1cc(Nc2ncc(C#N)c(Nc3cccc(N=S(C)(C)=O)n3)n2)cc2c1CCN(C)C2 [Compound 87] ?
Outgoing: 1.8

Incoming: Same question, COC/C=C/c1cc(Nc2ncc(C#N)c(Nc3cccc(N=S(C)(C)=O)n3)n2)cc2c1CCN(C)C2 [Compound 129] this time
Outgoing: 4.2

Incoming: Next entry: CN1CCc2c(cc(Nc3ncc(C#N)c(Nc4cccc(N=S(C)(C)=O)n4)n3)cc2C2CCOCC2)C1 [Compound 117]
Outgoing: 1.5
